- system.under.test: high affinity rolipram binding sites (HARBS) of the PDE4 (PDE4H)
- Construct: other: guinea pig whole brain particulates; 2 nM [3H]-r; guinea pig whole brain particul
- measurement.notes: Assay II: replacement of [3H]-rolipram bound on particulate HARBS of whole brain
- Design: species or system guinea pig
- conditions: guinea pig whole brain particulates; 2 nM [3H]-rolipram; mean±S.E.M.; read-out: PDE4H (EC50) for replacing high-affinity [3H]-rolipram binding
parameter: pEC50
Please express pEC50 as -log10 of the molar concentration.

Example entries begin here.
{"compound": "COc1cc(O)c2c(c1)OC(c1ccc(OC)c(OC)c1)CC2=O (stereo not shown)", "pEC50": 3.97}
{"compound": "O=c1c(-c2ccc(O)cc2)coc2cc(O)cc(O)c12", "pEC50": 4.32}
{"compound": "COc1c(-c2ccc(OC(C)=O)c(OC(C)=O)c2)oc2cc(OC(C)=O)cc(OC(C)=O)c2c1=O", "pEC50": 5.41}
{"compound": "COc1cc(OC)c2c(=O)c(OC)c(-c3ccc(OC)c(OC)c3)oc2c1", "pEC50": 4.25}

Q: Field request: pEC50 | item: COc1cc(OC)c2c(c1)OC(c1ccc(OC)c(OC)c1)CC2=O (stereo not shown)
Result: 3.77

Q: Same thing, different compound: `COc1c(-c2ccc(O)c(O)c2)oc2cc(O)cc(O)c2c1=O`
Result: 4.76

Q: Same thing, different compound: CC(=O)Oc1cc(OC(C)=O)c2c(=O)c(OC(C)=O)c(-c3ccc(OC(C)=O)c(OC(C)=O)c3)oc2c1 [Quercetin-3,5,7,3′,4′-O-pentaacetate]
Result: 4.08

###

- system.under.test: high affinity rolipram binding sites (HARBS) of the PDE4 (PDE4H)
- Construct: other: guinea pig whole brain particulates; 2 nM [3H]-r; guinea pig whole brain particul
- measurement.notes: Assay II: replacement of [3H]-rolipram bound on particulate HARBS of whole brain
- Set-up: species or system guinea pig
- conditions: reference drugs; guinea pig whole brain particulates; 2 nM [3H]-rolipram; mean±S.E.M.; read-out: PDE4H (EC50) for replacing high-affinity [3H]-rolipram binding
- Procedure: The binding experiments are carried on basis of the methods of Schneider et al and Zhao et al with a small modification. […] The final concentration of [^3H]-rolipram is 2 nM. […] The Whatman GF/B filter is mixed with 2 ml of cocktail and counted by the β-scintillation counter (Backman, Fullerton, Calif., USA) for counting the radioactivity thereof.
parameter: pEC50
Please express pEC50 as -log10 of the molar concentration.

{"molecule": "CCCCOc1cc(CC2CNC(=O)N2)ccc1OC (centres unmarked) [Ro 20-1724, reference compound]", "system.under.test": "high affinity rolipram binding sites (HARBS) of the PDE4 (PDE4H)", "pEC50": 7.06}

Read the next record carefully.
Q: Form entry - test system: high affinity rolipram binding sites (HARBS) of the PDE4 (PDE4H); read-out: pEC50; molecule: COc1ccc(C2CNC(=O)C2)cc1OC1CCCC1 (centres unmarked) [Rolipram, reference compound]
Result: 8.28

###

- Test system: high affinity rolipram binding sites (HARBS) of the PDE4 (PDE4H)
- measurement.notes: Assay II: replacement of [3H]-rolipram bound on particulate HARBS of whole brain
- Parameters: species or system guinea pig
- conditions: ratio of HARBS EC50 to PDE4 IC50
Rule: PDE4H/PDE4L ratio (EC50/IC50) below 1 gives Satisfied. Equal to or above 1 gives Not satisfied.

Example results:
{"compound": "COc1cc(OC)c2c(=O)c(OC)c(-c3ccc(OC)c(OC)c3)oc2c1 [Quercetin-3,5,7,3′,4′-O-petamethylether]", "class.assignment": "Not satisfied"}
{"compound": "COc1ccc(-c2coc3cc(O)cc(O)c3c2=O)cc1 [Biochanin A]", "class.assignment": "Not satisfied"}

Q: PDE4H/PDE4L ratio (EC50/IC50) strictly < 1 for this compound? COc1cc(O)c2c(=O)c(-c3ccc(O)cc3)coc2c1 [Prunetin]
Result: Not satisfied

Hey, just so you know, these numbers are from patent US20090036518A1.
